Quick reference for IC50 among some molecules
target: EGFR wildtype (WT) (Homo sapiens, UniProt P00533); assay: Biochemical EGFR kinase assay (Lance Ultra TR-FRET), wildtype; conditions: Km ATP; read-out: IC50 WT (nM) Km ATP
Sequence (P00533 25-1210): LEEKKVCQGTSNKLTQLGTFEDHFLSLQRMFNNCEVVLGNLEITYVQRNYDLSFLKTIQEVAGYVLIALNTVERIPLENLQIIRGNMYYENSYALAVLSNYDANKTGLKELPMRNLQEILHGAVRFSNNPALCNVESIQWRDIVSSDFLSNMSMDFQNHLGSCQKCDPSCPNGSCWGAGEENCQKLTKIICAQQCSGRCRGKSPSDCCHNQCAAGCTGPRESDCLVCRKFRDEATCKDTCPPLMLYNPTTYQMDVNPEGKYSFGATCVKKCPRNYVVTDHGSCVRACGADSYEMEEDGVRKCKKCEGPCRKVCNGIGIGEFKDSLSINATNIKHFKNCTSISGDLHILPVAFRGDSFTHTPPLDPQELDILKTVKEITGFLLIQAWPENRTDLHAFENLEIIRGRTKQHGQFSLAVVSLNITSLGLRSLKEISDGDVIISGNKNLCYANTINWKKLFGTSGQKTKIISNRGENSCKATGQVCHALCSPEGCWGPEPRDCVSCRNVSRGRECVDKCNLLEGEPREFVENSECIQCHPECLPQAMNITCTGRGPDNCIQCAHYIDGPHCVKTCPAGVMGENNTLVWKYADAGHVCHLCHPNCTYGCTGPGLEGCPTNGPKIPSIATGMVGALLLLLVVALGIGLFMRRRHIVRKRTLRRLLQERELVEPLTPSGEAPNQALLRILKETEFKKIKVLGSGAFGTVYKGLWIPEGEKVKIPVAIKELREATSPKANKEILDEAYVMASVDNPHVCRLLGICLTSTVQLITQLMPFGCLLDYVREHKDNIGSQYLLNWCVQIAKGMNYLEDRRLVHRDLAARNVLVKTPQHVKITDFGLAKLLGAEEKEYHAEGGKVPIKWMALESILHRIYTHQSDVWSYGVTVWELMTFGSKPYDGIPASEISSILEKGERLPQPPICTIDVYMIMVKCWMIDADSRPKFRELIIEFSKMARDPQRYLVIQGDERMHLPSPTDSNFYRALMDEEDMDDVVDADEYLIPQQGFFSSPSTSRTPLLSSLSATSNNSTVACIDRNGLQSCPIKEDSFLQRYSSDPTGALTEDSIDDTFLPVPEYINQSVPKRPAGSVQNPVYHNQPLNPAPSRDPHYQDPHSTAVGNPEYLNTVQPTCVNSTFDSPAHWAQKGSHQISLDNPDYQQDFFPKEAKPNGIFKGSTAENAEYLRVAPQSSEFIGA
EXPERIMENTAL ENDPOINT: IC50 (nM)

O=S(=O)(C1CC1)n1cc(-c2nccc(Nc3cc(OC4CCC(OC(F)F)CC4)c(-c4cnn(C(F)F)c4)cn3)n2)cn1 (stereo not drawn) ... 1740
Cn1ccc(-c2cnc(Nc3ccnc(-c4cnn(S(=O)(=O)C5CC5)c4)n3)cc2NC[C@H]2CC[C@H](O)CC2)n1 ... 4.5
O=S(=O)(C1CC1)n1cc(-c2nccc(Nc3cc(N[C@H]4CC[C@](O)(CO)CC4)c(-c4cc5n(n4)CCCC5)cn3)n2)cn1 ... 1.8
CO[C@H]1CCN(c2nccc(Nc3cc(N[C@H]4CC[C@@](C)(O)CC4)c(-c4ccn(C(F)F)n4)cn3)n2)C[C@H]1F ... 53.7
O=S(=O)(C1CC1)n1cc(-c2nccc(Nc3cc(N[C@H]4CC[C@@H](F)CC4)c(-c4ccn(CC(F)(F)F)n4)cn3)n2)cn1 ... 853
Cn1nc(-c2cnc(Nc3ccnc(-c4cnn(S(=O)(=O)C5CC5)c4)n3)cc2N[C@H]2CC[C@@H](F)CC2)cc1C(F)(F)F ... 91.9

* * *

biological target: UniProtKB P00533; experiment: Biochemical EGFR kinase assay (Lance Ultra TR-FRET), wildtype; conditions: Km ATP; read-out: IC50 WT, Km ATP
pIC50: −log10 of the molar value.
EXPERIMENTAL ENDPOINT: pIC50

Cn1nc(-c2cnc(Nc3ccnc(-c4cnn(CC(F)F)c4)n3)cc2N[C@H]2CC[C@@H](CCO)CC2)cc1C(F)(F)F ... 7.21
Cn1nc(-c2cnc(Nc3ccnc(N4CCC(O)C(F)(F)C4)n3)cc2NC2CCC(C)(O)CC2)cc1C(F)(F)F (centres unmarked) ... 6.76
COCn1ccc(-c2cnc(Nc3ccnc(-c4cnn(S(=O)(=O)C5CC5)c4)c3)nc2N[C@H]2CC[C@@](C)(O)CC2)n1 ... 7.40
CN1CCC(n2ccc(-c3cnc(Nc4ccnc(-c5cnn(CC(F)F)c5)n4)cc3N[C@H]3CC[C@@](C)(O)CC3)n2)CC1 ... 8.57
Cn1nc(-c2cnc(Nc3ccnc(-c4cnn(CC(F)F)c4)n3)cc2N[C@H]2CC[C@@](C)(O)CC2)cc1C(F)(F)F ... 6.85
C[C@]1(O)CC[C@@H](Nc2cc(Nc3ccnc(-c4cnn(CC(F)F)c4)n3)ncc2-c2ccn(CC(F)F)n2)CC1 ... 7.45
C[C@]1(O)CC[C@@H](Nc2cc(Nc3ccnc(N4CCC[C@H](O)C4)n3)ncc2-c2ccn(C(F)F)n2)CC1 ... 6.63
C[C@]1(O)CC[C@@H](Nc2cc(Nc3nc(-c4cnn(S(=O)(=O)C5CC5)c4)ncc3F)ncc2-c2ccn(CC(F)F)n2)CC1 ... 7.65

* * *

Quick reference for IC50 among some compounds
molecular target: EGFR L858R/T790M/C797S (Homo sapiens, UniProt P00533, C797S/L858R/T790M); experiment: Biochemical EGFR kinase assay (Lance Ultra TR-FRET), triple mutant L858R/T790M/C797S; conditions: Km ATP; read-out: IC50 L858R/T790M/C797S (nM) Km ATP
Sequence (P00533 25-1210 T790M/C797S/L858R): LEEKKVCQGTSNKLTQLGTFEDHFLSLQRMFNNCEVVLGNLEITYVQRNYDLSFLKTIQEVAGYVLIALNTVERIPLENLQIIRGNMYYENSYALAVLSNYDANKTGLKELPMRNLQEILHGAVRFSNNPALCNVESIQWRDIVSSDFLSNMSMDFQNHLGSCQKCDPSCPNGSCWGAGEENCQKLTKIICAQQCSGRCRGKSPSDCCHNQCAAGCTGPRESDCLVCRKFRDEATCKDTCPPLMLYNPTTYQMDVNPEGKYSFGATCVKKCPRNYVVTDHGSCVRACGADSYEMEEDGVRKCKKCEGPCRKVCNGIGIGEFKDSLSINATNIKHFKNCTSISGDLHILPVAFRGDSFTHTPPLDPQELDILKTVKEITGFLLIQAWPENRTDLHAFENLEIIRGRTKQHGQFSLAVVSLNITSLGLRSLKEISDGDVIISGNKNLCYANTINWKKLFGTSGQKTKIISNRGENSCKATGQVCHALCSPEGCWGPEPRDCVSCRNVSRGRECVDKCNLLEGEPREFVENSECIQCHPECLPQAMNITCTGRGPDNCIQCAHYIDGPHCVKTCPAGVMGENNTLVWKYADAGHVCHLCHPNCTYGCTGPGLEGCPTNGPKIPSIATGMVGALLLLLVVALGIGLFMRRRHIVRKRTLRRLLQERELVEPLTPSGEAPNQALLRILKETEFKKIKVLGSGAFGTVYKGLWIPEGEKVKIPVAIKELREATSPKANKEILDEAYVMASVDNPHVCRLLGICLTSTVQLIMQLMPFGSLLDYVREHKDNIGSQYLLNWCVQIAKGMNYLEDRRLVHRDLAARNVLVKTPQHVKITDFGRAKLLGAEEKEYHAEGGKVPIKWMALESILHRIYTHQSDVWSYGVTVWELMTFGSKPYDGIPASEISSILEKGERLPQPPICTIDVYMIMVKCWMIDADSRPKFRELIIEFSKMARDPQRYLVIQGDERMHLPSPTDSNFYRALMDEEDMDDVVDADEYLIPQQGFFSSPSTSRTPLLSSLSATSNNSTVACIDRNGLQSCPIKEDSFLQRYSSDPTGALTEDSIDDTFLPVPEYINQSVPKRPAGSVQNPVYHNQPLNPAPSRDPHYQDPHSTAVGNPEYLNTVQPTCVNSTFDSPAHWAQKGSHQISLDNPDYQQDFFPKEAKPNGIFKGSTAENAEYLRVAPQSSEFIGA
EXPERIMENTAL ENDPOINT: IC50 (nM)

CN(C)C[C@H]1CC[C@H](CNc2cc(Nc3ccnc(-c4cnn(S(=O)(=O)C5CC5)c4)n3)ncc2-c2ccn(C(F)F)n2)CC1 ... 0.3
O=S(=O)(C1CC1)n1cc(-c2nccc(Nc3cc(NCC4CC5(CNC5)C4)c(-c4ccn(C(F)F)n4)cn3)n2)cn1 ... 0.1
C[C@]1(F)CC[C@@H](Nc2cc(Nc3ccnc(-c4cnn(S(=O)(=O)C5CC5)c4)n3)ncc2-c2ccn(C(F)F)n2)CC1 ... 11.4
Cn1ccc(-c2cnc(Nc3ccnc(-c4cnn(S(=O)(=O)C5CC5)c4)n3)cc2NC[C@H]2CC[C@@H](O)C2)n1 ... 0.1
O=S(=O)(C1CC1)n1cc(-c2nccc(Nc3cc(N[C@H]4CC[C@@H](C(F)F)CC4)c(-c4ccn(C(F)F)n4)cn3)n2)cn1 ... 9.7
CN(C)CC[C@H]1CC[C@@H](Nc2cc(Nc3ccnc(-c4cnn(S(=O)(=O)C5CC5)c4)n3)ncc2-c2ccn(CC(F)F)n2)CC1 ... 0.2
C[C@]1(O)CC[C@@H](Nc2cc(Nc3ccnc(-c4cnn(S(=O)(=O)C5CC5)c4)n3)ncc2-c2cc3n(n2)CCCC3)CC1 ... 0.3
CC1(O)CCC(Nc2cc(Nc3ccnc(-c4cnn(S(=O)(=O)C5CCOC5)c4)n3)ncc2-c2ccn(C(F)F)n2)CC1 (centres unmarked) ... 0.2
OCC[C@H]1CC[C@H](Nc2cc(Nc3ccnc(-c4cnn(CC(F)F)c4)n3)ncc2-c2ccn(C(F)F)n2)CC1 ... 0.8
O=S(=O)(C1CC1)n1cc(-c2nccc(Nc3cc(NC4CC(O)C4)c(-c4ccn(C(F)F)n4)cn3)n2)cn1 (centres unmarked) ... 0.3
O=S(=O)(C1CC1)n1cc(-c2nccc(Nc3cc(OC4CCC(O)C4)c(-c4cnn(C(F)F)c4)cn3)n2)cn1 (centres unmarked) ... 0.8
CC(Nc1cc(Nc2ccnc(-c3cnn(S(=O)(=O)C4CC4)c3)n2)ncc1-c1ccn(C(F)F)n1)C(F)F (centres unmarked) ... 2.7
O=S(=O)(C1CC1)n1cc(-c2nccc(Nc3cc(N[C@H]4CC[C@@H](NCCF)CC4)c(-c4ccn(CC(F)F)n4)cn3)n2)cn1 ... 0.1
O=S(=O)(C1CC1)n1cc(-c2nccc(Nc3cc(N[C@H]4CC[C@@H](NCCF)CC4)c(-c4cc5n(n4)CCCC5)cn3)n2)cn1 ... 0.1
CC(C)(O)[C@H]1CC[C@@H](Nc2cc(Nc3ccnc(-c4cnn(S(=O)(=O)C5CC5)c4)n3)ncc2-c2ccn(C3COC3)n2)CC1 ... 0.3
CN1CCN(c2nc(-c3cnc(Nc4ccnc(-c5cnn(S(=O)(=O)C6CC6)c5)n4)cc3N[C@H]3CC[C@@](C)(O)CC3)cs2)CC1 ... 0.4
O=S(=O)(C1CC1)n1cc(-c2nccc(Nc3cc(NC4CCC(F)CC4)c(-c4ccn(C(F)F)n4)cn3)n2)cn1 (centres unmarked) ... 3.1
CN(C)CC1(C)CCC(Nc2cc(Nc3ccnc(-c4cnn(S(=O)(=O)C5CC5)c4)n3)ncc2-c2ccn(C)n2)CC1 (centres unmarked) ... 0.4
C[C@]1(O)CC[C@@H](Nc2cc(Nc3ccnc(Nc4ccnn4CC(F)F)n3)ncc2-c2ccn(C(F)F)n2)CC1 ... 2.8
O=S(=O)(C1CC1)n1cc(-c2nccc(Nc3cc(N[C@H]4CC[C@@H](CCO)CC4)c(-c4ccn(CC(F)(F)F)n4)cn3)n2)cn1 ... 0.5
CC(C)Nc1cc(Nc2ccnc(-c3cnn(S(=O)(=O)C4CC4)c3)n2)ncc1-c1ccn(CC(F)F)n1 ... 0.3
CC(C)(CO)Cn1cc(-c2nccc(Nc3cc(N[C@H]4CC[C@@](C)(O)CC4)c(-c4ccn(C(F)F)n4)cn3)n2)cn1 ... 0.9
C[C@]1(O)CC[C@@H](Nc2cc(Nc3ccnc(-c4cnn(S(=O)(=O)C5CC5)c4)n3)ncc2-c2ccn(CCC(F)(F)F)n2)CC1 ... 0.6
Cc1nn(S(=O)(=O)N(C)C)cc1-c1nccc(Nc2cc(N[C@H]3CC[C@@](C)(O)CC3)c(-c3ccn(C(F)F)n3)cn2)n1 ... 0.5
Cn1ccc(-c2cnc(Nc3ccnc(-c4cnn(S(=O)(=O)C5CC5)c4)n3)cc2NC2CCC(F)(CO)CC2)n1 (centres unmarked) ... 0.1
C[C@]1(O)CC[C@@H](Nc2cc(Nc3ccnc(-c4cnn(S(=O)(=O)C5CC5)c4)n3)ncc2-c2ccn(CC(F)F)n2)CC1 ... 0.3

* * *

biological target: EGFR del19/T790M/C797S (Homo sapiens, UniProt P00533, C797S/DEL746-750/T790M); assay: Biochemical EGFR kinase assay (Lance Ultra TR-FRET), triple mutant del19/T790M/C797S; details: IC50 del19/T790M/C797S (nM) 100 μM ATP, 100 μM ATP
Sequence (P00533 with tags, fused parts or gaps DEL746-750/T790M/C797S): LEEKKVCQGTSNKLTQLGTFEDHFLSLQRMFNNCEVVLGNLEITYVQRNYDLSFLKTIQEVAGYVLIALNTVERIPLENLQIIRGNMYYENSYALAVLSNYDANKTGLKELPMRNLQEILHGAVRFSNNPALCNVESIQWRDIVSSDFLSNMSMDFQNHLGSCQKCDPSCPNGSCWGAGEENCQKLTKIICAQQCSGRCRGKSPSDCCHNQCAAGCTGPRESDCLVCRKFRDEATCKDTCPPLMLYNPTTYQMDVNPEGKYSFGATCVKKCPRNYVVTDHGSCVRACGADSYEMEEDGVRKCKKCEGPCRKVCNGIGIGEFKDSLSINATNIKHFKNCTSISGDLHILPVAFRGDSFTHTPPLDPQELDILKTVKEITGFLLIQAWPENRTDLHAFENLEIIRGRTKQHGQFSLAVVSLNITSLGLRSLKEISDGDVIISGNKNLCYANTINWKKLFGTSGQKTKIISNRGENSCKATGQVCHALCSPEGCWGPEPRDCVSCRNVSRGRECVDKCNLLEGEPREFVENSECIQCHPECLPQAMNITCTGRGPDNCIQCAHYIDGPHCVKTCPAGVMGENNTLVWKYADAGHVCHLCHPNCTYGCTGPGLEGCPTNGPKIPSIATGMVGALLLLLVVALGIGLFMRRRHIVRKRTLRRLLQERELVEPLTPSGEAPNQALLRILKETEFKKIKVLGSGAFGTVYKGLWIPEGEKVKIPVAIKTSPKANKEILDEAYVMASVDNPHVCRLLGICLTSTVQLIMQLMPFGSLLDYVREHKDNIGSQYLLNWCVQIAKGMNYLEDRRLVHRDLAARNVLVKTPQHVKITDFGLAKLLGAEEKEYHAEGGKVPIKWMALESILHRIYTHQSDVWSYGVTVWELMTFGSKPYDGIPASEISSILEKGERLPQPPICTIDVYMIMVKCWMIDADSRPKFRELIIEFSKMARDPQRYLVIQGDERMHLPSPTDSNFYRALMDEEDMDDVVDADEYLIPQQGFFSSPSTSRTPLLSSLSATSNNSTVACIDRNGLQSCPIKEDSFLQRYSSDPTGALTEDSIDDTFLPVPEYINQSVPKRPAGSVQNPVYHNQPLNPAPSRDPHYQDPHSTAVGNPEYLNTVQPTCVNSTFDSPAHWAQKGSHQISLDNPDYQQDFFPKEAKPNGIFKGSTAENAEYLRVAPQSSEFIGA
Quick reference for log10 of IC50 among some compounds
EXPERIMENTAL ENDPOINT: log10 of IC50 (log10 of the value in nM)

CN(C)C[C@H]1CC[C@H](CNc2cc(Nc3ccnc(-c4cnn(S(=O)(=O)C5CC5)c4)n3)ncc2-c2csc(C(F)(F)F)n2)CC1 ... -0.52
Cc1nn(S(=O)(=O)N(C)C)cc1-c1nccc(Nc2cc(N[C@H]3CC[C@@](C)(O)CC3)c(-c3ccn(C(F)F)n3)cn2)n1 ... 0.28
O=S(=O)(C1CC1)n1cc(-c2nccc(Nc3cc(NCC4CCCC(O)C4)c(-c4ccn(C(F)F)n4)cn3)n2)cn1 (stereo not shown) ... 0.20
CC1(CNc2cc(Nc3ccnc(-c4cnn(S(=O)(=O)C5CC5)c4)n3)ncc2-c2ccn(C(F)F)n2)CCC(O)CC1 (stereo not shown) ... 0.49
CN(C)CC1(C)CCC(Nc2cc(Nc3ccnc(-c4cnn(S(=O)(=O)C5CC5)c4)n3)ncc2-c2ccn(C)n2)CC1 (stereo not shown) ... -0.22
O=S(=O)(C1CC1)n1cc(-c2nccc(Nc3cc(N[C@H]4CC[C@@H](O)C4)c(-c4ccn(C(F)F)n4)cn3)n2)cn1 ... -0.22
O=S(=O)(C1CC1)n1cc(-c2nccc(Nc3cc(NC4CCCC(NCC(F)F)C4)c(-c4ccn(C(F)F)n4)cn3)n2)cn1 (stereo not shown) ... 0.23
CC1(O)CCC(Oc2cc(Nc3ccnc(-c4cnn(S(=O)(=O)C5CC5)c4)n3)ncc2-c2cnn(C(F)F)c2)CC1 (stereo not shown) ... -0.40
O=S(=O)(C1CC1)n1cc(-c2nccc(Nc3cc(N[C@H]4CC[C@@H](O)CC4)c(-c4cnn(C5CC5)c4)cn3)n2)cn1 ... 0.68
Cn1ccc(-c2cnc(Nc3ccnc(-c4cnn(S(=O)(=O)C5CC5)c4)n3)cc2NCC2(CO)COC2)n1 ... -0.70
CN(CC(F)F)C[C@H]1CC[C@@H](Nc2cc(Nc3ccnc(-c4cnn(S(=O)(=O)C5CC5)c4)n3)ncc2-c2ccn(CC(F)F)n2)CC1 ... 1.12
C[C@]1(O)CC[C@@H](Nc2cc(Nc3ccnc(-c4cnn(CC(F)(F)F)c4)n3)ncc2-c2ccn(C(F)F)n2)CC1 ... 0.08
O=S(=O)(C1CC1)n1cc(-c2nccc(Nc3cc(N[C@H]4CC[C@@H](O)CC4)c(-c4cnn(C(F)F)c4)cn3)n2)cn1 ... 0.94
